Molecular target: T1, human CLDN6, endogenously expressed on cancer cell lines (human, UniProt P56747 1-220)
T1 construct: also called Endogenous CLDN6+; CLDN6 on ARK2, OVCA429, UMUC4 cells
T1 sequence: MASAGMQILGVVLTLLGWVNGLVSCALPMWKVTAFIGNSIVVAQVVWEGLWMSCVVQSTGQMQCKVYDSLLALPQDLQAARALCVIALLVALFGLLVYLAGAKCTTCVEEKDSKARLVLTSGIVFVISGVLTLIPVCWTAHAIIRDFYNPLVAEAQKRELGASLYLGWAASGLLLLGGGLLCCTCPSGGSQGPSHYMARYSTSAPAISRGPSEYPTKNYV
Test: FACS dose curve, labelled mAb, OVCA429 cells
Readings of EC50 for the listed binders
readout: EC50 (µM)

binder | quantitative.result
AB13 (antibody, V domains shown, Full-length IgG (ExpiCHO)) VH: QVQLQQSGAELVRPGTSVKVSCKASGYAFSNYLIEWVKQRPGQGLEWIGVINPGSGGTNYNEKFKGKATMTADKSSSTAYMHLSNLTSEDSVVYFCARSYFGRSYPYTMDYWGQGTSVTVSS VL: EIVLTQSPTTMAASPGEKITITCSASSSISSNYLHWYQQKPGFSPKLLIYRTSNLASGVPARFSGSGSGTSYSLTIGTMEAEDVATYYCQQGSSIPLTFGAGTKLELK | 2.29
AB1 (antibody, V domains shown, Full-length IgG (ExpiCHO)) VH: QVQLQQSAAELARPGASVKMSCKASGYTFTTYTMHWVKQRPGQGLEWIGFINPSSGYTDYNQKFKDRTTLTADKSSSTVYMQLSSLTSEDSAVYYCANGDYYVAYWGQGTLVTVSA VL: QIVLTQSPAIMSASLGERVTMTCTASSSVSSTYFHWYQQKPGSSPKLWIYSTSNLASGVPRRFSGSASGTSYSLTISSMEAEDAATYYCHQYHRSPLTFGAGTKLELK | 0.084
AB9 (antibody, V domains shown, Full-length IgG (ExpiCHO)) VH: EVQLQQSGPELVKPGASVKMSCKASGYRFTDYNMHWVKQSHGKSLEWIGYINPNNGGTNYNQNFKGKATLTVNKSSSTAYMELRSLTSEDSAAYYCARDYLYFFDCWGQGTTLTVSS VL: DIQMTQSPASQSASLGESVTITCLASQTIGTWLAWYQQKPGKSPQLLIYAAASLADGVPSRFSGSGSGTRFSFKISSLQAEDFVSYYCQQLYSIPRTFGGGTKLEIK | 1.17
